# Tested on: RAW-Dual
# protocol notes: NF-kB SEAP reporter activity, fold change vs agonist alone; cytotoxicity flag (confluency mask): not cytotoxic; higher = enhanced NF-kB activity
# experimental conditions: agonist: Pam2CSK4 (TLR2/6) 0.1 ug/mL
In all, about 2,900 compounds were measured (“NF-kB SEAP reporter activity, fold change vs agonist alone”: median about 0.99, highest 2% from about 2.6 on). The sample holds the highest values, similar compounds and a random draw of the others, so the mix is not that of the screen.
Each entry gets label 0 if its NF-kB SEAP reporter activity stays under 1, and label 1 if its NF-kB SEAP reporter activity is 1 or above.

INSERT INTO measurements (compound, target_entity, discrete_label) VALUES
  ('C=C(C)C1CCC2(C)CCC3(C)C(CCC4C5(C)CCC(O)C(C)(C)C5CCC43C)C12 (stereo unspecified) (library stock concentration (final ~1000-fold dilution): 2 mM)', 'RAW-Dual', 'label 1'),
  ('COc1ccc(-c2nc3cc(C4=NNC(=O)CC4C)ccc3[nH]2)cc1 (stereo unspecified) (library stock concentration (final ~1000-fold dilution): 10 mM)', 'RAW-Dual', 'label 1'),
  ('Cc1noc(C)c1-c1cnc2c(-c3ccc(C(=O)O)cc3)cn(C(C)c3ccccn3)c2c1 (stereo unspecified) (library stock concentration (final ~1000-fold dilution): 10 mM)', 'RAW-Dual', 'label 0'),
  ('NC(=O)c1ccc(-c2nc(-c3ccc4c(c3)OCCO4)c(-c3ccccn3)[nH]2)cc1 (library stock concentration (final ~1000-fold dilution): 10 mM)', 'RAW-Dual', 'label 1'),
  ('O=c1c(-c2ccc(O)cc2)coc2cc(OC3OC(CO)C(O)C(O)C3O)ccc12 (stereo unspecified) (library stock concentration (final ~1000-fold dilution): 10 mM)', 'RAW-Dual', 'label 1'),
  ('Cl.Cl.N/C(=N\OCC(O)CN1CCCCC1)c1cccnc1 (stereo unspecified) (library stock concentration (final ~1000-fold dilution): 10 mM)', 'RAW-Dual', 'label 1');

====

# System: RAW-Dual
# protocol notes: NF-kB SEAP reporter activity, fold change vs agonist alone; higher = enhanced NF-kB activity
# experimental conditions: library stock concentration (final ~1000-fold dilution): 10 mM; cytotoxicity flag (confluency mask): not cytotoxic; agonist: Imiquimod (TLR7) […]
Whole data set: some 2,900 compounds, median “NF-kB SEAP reporter activity, fold change vs agonist alone” near 0.99, cut for the highest 2% near 2.6. For the sample, the highest values were picked, then their nearest neighbours and some compounds at random.
Consider the following compounds and their measured NF-kB SEAP reporter activity readings.
measurement kind: NF-kB SEAP reporter activity

INSERT INTO assay_data (compound, measurement_kind, value_reported) VALUES
  ('CC(C)(O)CNc1ncc(-c2ccnc(Nc3ccncc3)n2)c(CC2CC2)n1', 'NF-kB SEAP reporter activity', 0.914),
  ('CN(C/C=C/C#CC(C)(C)C)Cc1cccc2ccccc12', 'NF-kB SEAP reporter activity', 1.6),
  ('Nc1nc2cc(-c3ccc4ncc(C(=O)N5CCOCC5)n4c3)ccc2o1', 'NF-kB SEAP reporter activity', 1.09),
  ('Nc1ncn(C2OC(CO)C(O)C2O)c(=O)n1 (configuration not stated)', 'NF-kB SEAP reporter activity', 2.59),
  ('O=C(O)CN1C(=O)c2cccc3cccc(c23)C1=O', 'NF-kB SEAP reporter activity', 0.931),
  ('CN(C/C=C/C#CC(C)(C)C)Cc1cccc2ccccc12.Cl', 'NF-kB SEAP reporter activity', 1.56),
  ('Nc1ccccc1NC(=O)c1cnccn1', 'NF-kB SEAP reporter activity', 0.997),
  ('CC(C)(O)CNc1ncc(-c2ccnc(Nc3ccnc(Cl)c3)n2)c(CC2CC2)n1', 'NF-kB SEAP reporter activity', 0.784),
  ('COc1ccc(C2CC(=O)c3c(O)cc(O)cc3O2)cc1O (configuration not stated)', 'NF-kB SEAP reporter activity', 1.28),
  ('COc1cccc(CCc2ccccc2OCC(CN(C)C)OC(=O)CCC(=O)O)c1.Cl (configuration not stated)', 'NF-kB SEAP reporter activity', 1.22),
  ('N#Cc1cc(-c2ccnc(Nc3ccc(N4CCOCC4)cc3)n2)ccc1OC1CCOCC1', 'NF-kB SEAP reporter activity', 1.85),
  ('CCn1cc(C(=O)O)c(=O)c2cc(F)c(N3CCN(C)CC3)cc21.CS(=O)(=O)O', 'NF-kB SEAP reporter activity', 0.916),
  ('COc1cnc(NS(=O)(=O)c2ccc(N)cc2)nc1', 'NF-kB SEAP reporter activity', 0.927),
  ('COc1ccc(-c2nc3cc(C4=NNC(=O)CC4C)ccc3[nH]2)cc1 (configuration not stated)', 'NF-kB SEAP reporter activity', 1.67),
  ('Cc1nc(N)sc1-c1ccnc(Nc2ccc(N3CCOCC3)cc2)n1', 'NF-kB SEAP reporter activity', 0.996),
  ('COCCOc1nc(N)c2[nH]c(=O)n(Cc3ccc(C(=O)O)cc3)c2n1', 'NF-kB SEAP reporter activity', 1.8),
  ('Nc1ccc2ncnc(NCCc3ccc(Oc4ccccc4)cc3)c2c1', 'NF-kB SEAP reporter activity', 1.46),
  ('CC(C(O)c1ccc(O)cc1)N1CCC(Cc2ccccc2)CC1.CC(C(O)c1ccc(O)cc1)N1CCC(Cc2ccccc2)CC1.O=C(O)C(O)C(O)C(=O)O (configuration not stated)', 'NF-kB SEAP reporter activity', 1.14),
  ('Cn1cc(-c2ccc3ncc(Cc4ccc5ncccc5c4)n3n2)cn1', 'NF-kB SEAP reporter activity', 1.37),
  ('Cl.N=c1ccn2c(n1)OC1C(O)C(CO)OC12 (configuration not stated)', 'NF-kB SEAP reporter activity', 1.8),
  ('Cc1n[nH]c2ncc(C(=O)N3CCCC3c3ccc(Cl)cc3)cc12 (configuration not stated)', 'NF-kB SEAP reporter activity', 1.44),
  ('O=C(/C=C/c1ccc(O)c(O)c1/C=C/c1ccc(O)c(O)c1)OC(Cc1ccc(O)c(O)c1)C(=O)O (configuration not stated)', 'NF-kB SEAP reporter activity', 0.405),
  ('O=C(Cc1ccc(-c2ccc(OCCN3CCOCC3)cc2)cn1)NCc1ccccc1', 'NF-kB SEAP reporter activity', 2.63),
  ('Cn1c(=O)cc(N2CCCC(N)C2)n(Cc2ccccc2C#N)c1=O (configuration not stated)', 'NF-kB SEAP reporter activity', 1.08),
  ('COC(=O)c1ccc(O)c(O)c1', 'NF-kB SEAP reporter activity', 0.731),
  ('COC(=O)NC(C(=O)N1CCCC1c1ncc(-c2ccc(-c3ccc(-c4cnc(C5CCCN5C(=O)C(NC(=O)OC)C(C)C)[nH]4)cc3)cc2)[nH]1)C(C)C (configuration not stated)', 'NF-kB SEAP reporter activity', 1.24),
  ('CCC(C)C(=O)OC1CC(C)C=C2C=CC(C)C(CCC3CC(O)CC(=O)O3)C21 (configuration not stated)', 'NF-kB SEAP reporter activity', 2.54),
  ('CC(C)C(NC(=O)C(CC(=O)O)NC(=O)C(CCCCN)NC(=O)C(N)CCCNC(=N)N)C(=O)NC(Cc1ccc(O)cc1)C(=O)O (configuration not stated)', 'NF-kB SEAP reporter activity', 1.14),
  ('COc1cc2ncc(-c3ccccc3)nc2cc1OC', 'NF-kB SEAP reporter activity', 1.16),
  ('COc1cc(Nc2nc3ccccc3nc2NS(=O)(=O)c2ccc(NC(=O)c3ccc(C)c(OC)c3)cc2)cc(OC)c1', 'NF-kB SEAP reporter activity', 0.914),
  ('NC(=O)c1ccc2[nH]c(-c3ccc(Oc4ccc(Cl)cc4)cc3)nc2c1', 'NF-kB SEAP reporter activity', 1.47),
  ('CC#CCn1c(N2CCCC(N)C2)nc2c1c(=O)n(Cc1nc(C)c3ccccc3n1)c(=O)n2C (configuration not stated)', 'NF-kB SEAP reporter activity', 0.851),
  ('CC1(C)CCC2(C(=O)O)CCC3(C)C(=CCC4C5(C)CCC(=O)C(C)(C)C5CCC43C)C2C1 (configuration not stated)', 'NF-kB SEAP reporter activity', 0.8),
  ('CCn1cc(C(=O)O)c(=O)c2c(N)c(F)c(NC3CCCCC3)cc21', 'NF-kB SEAP reporter activity', 1.75),
  ('CN1C(=O)C(NC(=O)c2n[nH]c(Cc3ccccc3)n2)COc2ccccc21 (configuration not stated)', 'NF-kB SEAP reporter activity', 1.3),
  ('CC(C)(C)c1ccc(Cn2nc(-c3ccc(Cl)cc3)cc2C(=O)NO)cc1', 'NF-kB SEAP reporter activity', 1.47),
  ('Nc1ncn(C2CC(O)C(CO)O2)c(=O)n1 (configuration not stated)', 'NF-kB SEAP reporter activity', 1.58),
  ('Cc1cc(Cl)ccc1OCCCC(=O)NO', 'NF-kB SEAP reporter activity', 1.35),
  ('COc1cc(N2CCN(C)CC2)ccc1Nc1nccc(-c2cn(C)c3cnccc23)n1', 'NF-kB SEAP reporter activity', 0.285),
  ('O=C(O)c1ccc(O)c2ncccc12', 'NF-kB SEAP reporter activity', 1.05),
  ('CCOC(=O)c1ccc(NC2CCCCC2)c(N)c1', 'NF-kB SEAP reporter activity', 1.14),
  ('Cl.Cl.O=C(O)c1ccc(CN2CCC(CNC3CC3c3ccccc3)CC2)cc1 (configuration not stated)', 'NF-kB SEAP reporter activity', 1.01);
